The reported numbers originate from the supplement of paper PMC6757056.

B1: library; a variant is named by its letters at N, in order (parent)
chain: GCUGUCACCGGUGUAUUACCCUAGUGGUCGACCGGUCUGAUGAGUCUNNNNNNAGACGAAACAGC

Variants of: B1
Experimental Protocol: FACS-Seq fitted mean relative fluorescence mCherry/BFP without ligand (log10 relative fluorescence); ligand: hypoxanthine (xanthine aptamer); higher = higher reporter protein expression
Condition Context: HEK293T, ligand present: no
Kind request: treat 0.2 as inclusive, so FACS-Seq fitted mean (log10) at 0.2 or higher is TRUE, anything lower is FALSE.

# Mutation Code, Discrete Label
measured = [
    ("GAAGAG", "FALSE"),
    ("UGUACA", "TRUE"),
    ("AACAUG", "FALSE"),
    ("AUUUUU", "TRUE"),
    ("GAUGGC", "TRUE"),
    ("GUUAGG", "TRUE"),
    ("UCAUAC", "TRUE"),
    ("GAUUAG", "FALSE"),
    ("GUUUAA", "FALSE"),
    ("GAGUAA", "FALSE"),
    ("AAGUCU", "FALSE"),
    ("AUACGC", "TRUE"),
    ("AAGAGU", "TRUE"),
    ("AUCAGG", "TRUE"),
    ("CCUCGA", "TRUE"),
    ("CAGAAC", "TRUE"),
    ("AGCCCA", "FALSE"),
    ("CACGCU", "TRUE"),
    ("AUACGG", "FALSE"),
    ("GUUAGA", "TRUE"),
]
